assay: in vivo; details: dog, iv, 10 mg/kg, t1/2 (biological half life), microbiological assay
readout.name: half-life
Mention the unit after the number when you answer.

[Q] Field request: half-life | item: CC[C@H]1OC(=O)[C@H](C)[C@@H](O[C@H]2C[C@@](C)(OC)[C@@H](O)[C@H](C)O2)[C@H](C)[C@@H](O[C@@H]2O[C@H](C)C[C@H](N(C)C)[C@H]2O)[C@](C)(O)C[C@@H](C)C(=O)[C@H](C)[C@@H](O)[C@]1(C)O [Std, Erythromycin A, reference compound]
[A] 1.4 h

----------
Items are presented alongside their recorded MIC.
test system: Staphylococcus aureus CMX 686B; assay: In-vitro antimicrobial activity primary screen (agar dilution MIC); format: cell-based; details: CMX686B, BHI agar, 20-24 h, read-out: MIC
Use µg/mL as the unit, but write only the number.

Worked examples follow.
INSERT INTO results (molecule, meas_value) VALUES
  ('CC[C@H]1OC(=O)[C@H](C)[C@@H](O[C@H]2C[C@@](C)(OC)[C@@H](N)[C@H](C)O2)[C@H](C)[C@@H](O[C@@H]2O[C@H](C)C[C@H](N(C)C)[C@H]2O)[C@](C)(O)C[C@@H](C)[C@@H]2O[C@@]1(C)C(=O)[C@H]2C [Example 14]', 0.39),
  ('CC[C@H]1OC(=O)[C@H](C)[C@@H](O[C@H]2C[C@@](C)(OC)[C@@H](O)[C@H](C)O2)[C@H](C)[C@@H](O[C@@H]2O[C@H](C)C[C@H](N(C)C)[C@H]2O)[C@](C)(O)C[C@@H](C)[C@@H]2O[C@@]1(C)[C@@H](N)[C@H]2C [Example 19]', 0.2),
  ('CC[C@H]1OC(=O)[C@H](C)[C@@H](O[C@H]2C[C@@](C)(OC)[C@H](N)[C@H](C)O2)[C@H](C)[C@@H](O[C@@H]2O[C@H](C)C[C@H](N(C)C)[C@H]2O)[C@](C)(O)C[C@@H](C)[C@@H]2O[C@@]1(C)[C@@H](O)[C@H]2C [Example 13]', 0.2);

Could you now consider this next molecule?
[Q] Field request: MIC | item: CC[C@H]1OC(=O)[C@H](C)[C@@H](O[C@H]2C[C@@](C)(OC)[C@@H](N)[C@H](C)O2)[C@H](C)[C@@H](O[C@@H]2O[C@H](C)C[C@H](N(C)C)[C@H]2O)[C@](C)(O)C[C@@H](C)[C@@H]2O[C@@]1(C)[C@@H](O)[C@H]2C [Example 15]
[A] 0.39
